Data provenance: ChEMBL document CHEMBL1932980

For each record, write down the corresponding fold change (FC).
- study.target: Adenosine receptor A1 (Homo sapiens)
- experimental.details: Binding affinity to recombinant human A1 adenosine receptor allosteric site expressed in CHO cells assessed as [3H]CCPA Bmax shift at 10 uM after 90 mins relative to control
- Assay type: cell-based
Please give the numeric answer without any surrounding text.

Param item = `Nc1scc(CN2CCN(c3ccc(F)c(F)c3)CC2)c1C(=O)c1ccc(Cl)cc1` ; retrieve measured fold change (FC).
7.2

Param item = `Nc1scc(CN2CCN(C3CCCCCC3)CC2)c1C(=O)c1ccc(Cl)cc1` ; retrieve measured fold change (FC).
1.1

Param item = `Nc1scc(CN2CCN(c3cccc(F)c3)CC2)c1C(=O)c1ccc(Cl)cc1` ; retrieve measured fold change (FC).
4.8

Param item = `Nc1scc(CN2CCN(c3ccccc3C(F)(F)F)CC2)c1C(=O)c1ccc(Cl)cc1` ; retrieve measured fold change (FC).
4.4

Param item = `Nc1scc(CN2CCN(c3cccc(F)c3)CC2)c1C(=O)c1cccc(C(F)(F)F)c1` ; retrieve measured fold change (FC).
6

Param item = `Nc1scc(CN2CCN(C(=O)Cc3ccc(Cl)cc3)CC2)c1C(=O)c1ccc(Cl)cc1` ; retrieve measured fold change (FC).
1.5

Param item = `Nc1scc(CN2CCN(c3c(Cl)cccc3Cl)CC2)c1C(=O)c1ccc(Cl)cc1` ; retrieve measured fold change (FC).
3.3

Param item = `Nc1scc(CN2CCN(c3ccncc3)CC2)c1C(=O)c1ccc(Cl)cc1` ; retrieve measured fold change (FC).
1.1

Param item = `Nc1scc(CN2CCN(c3ccc(F)c(Cl)c3)CC2)c1C(=O)c1ccc(Cl)cc1` ; retrieve measured fold change (FC).
7

Param item = `Nc1scc(CN2CCN(c3cc(Cl)ccc3Cl)CC2)c1C(=O)c1ccc(Cl)cc1` ; retrieve measured fold change (FC).
3.2

###

- study.target: Adenosine receptor A1 (Homo sapiens) (UniProt P30542)
- Sequence (P30542 whole entry): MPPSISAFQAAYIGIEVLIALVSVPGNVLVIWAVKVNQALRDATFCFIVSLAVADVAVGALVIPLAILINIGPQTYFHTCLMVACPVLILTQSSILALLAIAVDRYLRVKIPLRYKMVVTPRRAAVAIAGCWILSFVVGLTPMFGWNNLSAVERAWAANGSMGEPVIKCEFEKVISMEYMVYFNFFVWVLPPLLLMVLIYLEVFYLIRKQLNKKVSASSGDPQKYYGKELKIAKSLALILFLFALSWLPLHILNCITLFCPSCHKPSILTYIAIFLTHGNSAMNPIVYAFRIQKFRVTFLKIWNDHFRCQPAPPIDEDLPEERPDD
- experimental.details: Allosteric enhancer activity at recombinant human A1 adenosine receptor expressed in CHO cells assessed as change in forskolin-induced cAMP production at 0.1 uM after 6 mins by radioimmunoassay
- Format: functional, cell-based
# binarize Activity: threshold -10% inclusive, high side TRUE, low side FALSE

Exam item: decide whether the reported Activity for `Nc1scc(CN2CCN(c3cccc(Cl)c3Cl)CC2)c1C(=O)c1ccc(Cl)cc1` is at least -10%.
TRUE

Exam item: decide whether the reported Activity for `Nc1scc(CN2CCN(c3cc(F)cc(F)c3)CC2)c1C(=O)c1ccc(Cl)cc1` is at least -10%.
TRUE

Exam item: decide whether the reported Activity for `CC(C)N1CCN(Cc2csc(N)c2C(=O)c2ccc(Cl)cc2)CC1` is at least -10%.
TRUE

Exam item: decide whether the reported Activity for `Nc1scc(CN2CCN(c3ccc([N+](=O)[O-])cc3)CC2)c1C(=O)c1ccc(Cl)cc1` is at least -10%.
FALSE

Exam item: decide whether the reported Activity for `Nc1scc(CN2CCN(c3ccc(C(F)(F)F)cc3)CC2)c1C(=O)c1cccc(C(F)(F)F)c1` is at least -10%.
FALSE

Exam item: decide whether the reported Activity for `Nc1scc(CN2CCN(c3cccc(C(F)(F)F)c3)CC2)c1C(=O)c1ccc(Cl)cc1` is at least -10%.
FALSE

Exam item: decide whether the reported Activity for `Nc1scc(CN2CCN(c3cc(Cl)cc(Cl)c3)CC2)c1C(=O)c1ccc(Cl)cc1` is at least -10%.
FALSE

Exam item: decide whether the reported Activity for `Nc1scc(CN2CCC(c3ccc(Cl)cc3)CC2)c1C(=O)c1ccc(Cl)cc1` is at least -10%.
TRUE

Exam item: decide whether the reported Activity for `Nc1scc(CN2CCN(c3ccc(Cl)c(Cl)c3)CC2)c1C(=O)c1ccc(Cl)cc1` is at least -10%.
FALSE

Exam item: decide whether the reported Activity for `Nc1scc(CN2CCN(c3cccnc3)CC2)c1C(=O)c1ccc(Cl)cc1` is at least -10%.
TRUE

Exam item: decide whether the reported Activity for `Nc1scc(CN2CCN(C(=O)Cc3ccc(Cl)cc3)CC2)c1C(=O)c1ccc(Cl)cc1` is at least -10%.
TRUE

Exam item: decide whether the reported Activity for `Nc1scc(CN2CCN(c3cccc(F)c3F)CC2)c1C(=O)c1ccc(Cl)cc1` is at least -10%.
TRUE

Exam item: decide whether the reported Activity for `Nc1scc(CN2CCN(c3ccc(F)c(Cl)c3)CC2)c1C(=O)c1ccc(Cl)cc1` is at least -10%.
FALSE

Exam item: decide whether the reported Activity for `Nc1scc(CN2CCN(c3c(F)cc(F)cc3F)CC2)c1C(=O)c1ccc(Cl)cc1` is at least -10%.
TRUE

Exam item: decide whether the reported Activity for `Nc1scc(CN2CCN(c3ccc(Cl)cc3F)CC2)c1C(=O)c1ccc(Cl)cc1` is at least -10%.
TRUE

Exam item: decide whether the reported Activity for `Cc1sc(N)c(C(=O)c2cccc(C(F)(F)F)c2)c1C` is at least -10%.
TRUE

Exam item: decide whether the reported Activity for `Nc1scc(CN2CCN(c3ccccc3C(F)(F)F)CC2)c1C(=O)c1ccc(Cl)cc1` is at least -10%.
TRUE

Exam item: decide whether the reported Activity for `Nc1scc(CN2CCN(c3cc(Cl)ccc3Cl)CC2)c1C(=O)c1ccc(Cl)cc1` is at least -10%.
TRUE

Exam item: decide whether the reported Activity for `Nc1scc(CN2CCN(c3cccc(Cl)c3)CC2)c1C(=O)c1ccc(Cl)cc1` is at least -10%.
FALSE

Exam item: decide whether the reported Activity for `COc1ccc(N2CCN(Cc3csc(N)c3C(=O)c3ccc(Cl)cc3)CC2)cc1` is at least -10%.
TRUE

Exam item: decide whether the reported Activity for `Nc1scc(CN2CCN(c3c(F)cccc3F)CC2)c1C(=O)c1cccc(C(F)(F)F)c1` is at least -10%.
TRUE

Exam item: decide whether the reported Activity for `Nc1scc(CN2CCN(c3cccc(F)c3)CC2)c1C(=O)c1cccc(C(F)(F)F)c1` is at least -10%.
FALSE

Exam item: decide whether the reported Activity for `Nc1scc(CN2CCN(c3cccc(F)c3)CC2)c1C(=O)c1ccc(Cl)cc1` is at least -10%.
FALSE

Exam item: decide whether the reported Activity for `Nc1scc(CN2CCN(c3ccncc3)CC2)c1C(=O)c1ccc(Cl)cc1` is at least -10%.
TRUE

Exam item: decide whether the reported Activity for `Nc1scc(CN2CCN(c3ccc(OC(F)(F)F)cc3)CC2)c1C(=O)c1ccc(Cl)cc1` is at least -10%.
FALSE

Exam item: decide whether the reported Activity for `Nc1scc(CN2CCN(c3ccccc3Cl)CC2)c1C(=O)c1ccc(Cl)cc1` is at least -10%.
TRUE

Exam item: decide whether the reported Activity for `Nc1scc(CN2CCN(c3ccc(F)cc3Cl)CC2)c1C(=O)c1ccc(Cl)cc1` is at least -10%.
TRUE

Exam item: decide whether the reported Activity for `Nc1scc(CN2CCN(c3ccc(Cl)c(C(F)(F)F)c3)CC2)c1C(=O)c1ccc(Cl)cc1` is at least -10%.
FALSE

Exam item: decide whether the reported Activity for `Nc1scc(CN2CCN(c3ccc(F)c(F)c3)CC2)c1C(=O)c1ccc(Cl)cc1` is at least -10%.
FALSE

Exam item: decide whether the reported Activity for `Nc1scc(CN2CCN(CCCc3ccc(Cl)cc3)CC2)c1C(=O)c1ccc(Cl)cc1` is at least -10%.
TRUE

Exam item: decide whether the reported Activity for `Nc1scc(CN2CCN(CC(=O)c3ccc(Cl)cc3)CC2)c1C(=O)c1ccc(Cl)cc1` is at least -10%.
TRUE

Exam item: decide whether the reported Activity for `Nc1scc(CN2CCN(Cc3ccc(F)cc3)CC2)c1C(=O)c1ccc(Cl)cc1` is at least -10%.
TRUE

Exam item: decide whether the reported Activity for `Nc1scc(CN2CCN(c3ccc(Cl)cc3Cl)CC2)c1C(=O)c1ccc(Cl)cc1` is at least -10%.
FALSE

Exam item: decide whether the reported Activity for `Nc1scc(CN2CCN(c3c(Cl)cccc3Cl)CC2)c1C(=O)c1ccc(Cl)cc1` is at least -10%.
TRUE

Exam item: decide whether the reported Activity for `Nc1scc(CN2CCN(c3cc(F)ccc3F)CC2)c1C(=O)c1ccc(Cl)cc1` is at least -10%.
FALSE

Exam item: decide whether the reported Activity for `Nc1scc(CN2CCN(c3c(F)cccc3F)CC2)c1C(=O)c1ccc(Cl)cc1` is at least -10%.
FALSE

Exam item: decide whether the reported Activity for `Nc1scc(CN2CCN(C3CCCCCC3)CC2)c1C(=O)c1ccc(Cl)cc1` is at least -10%.
TRUE

Exam item: decide whether the reported Activity for `Nc1scc(CN2CCN(c3cccc4ccccc34)CC2)c1C(=O)c1ccc(Cl)cc1` is at least -10%.
TRUE

###

- study.target: Adenosine receptor A1 (Homo sapiens) (UniProt P30542)
- experimental.details: Allosteric enhancer activity at recombinant human A1 adenosine receptor expressed in CHO cells assessed as change in forskolin-induced cAMP production at 0.1 uM after 6 mins by radioimmunoassay
- Format: functional, cell-based
For each record, write down the corresponding Activity.
Give your result in % as a bare value.

Param item = `Nc1scc(CN2CCN(c3ccc(F)cc3F)CC2)c1C(=O)c1ccc(Cl)cc1` ; retrieve measured Activity.
-17

Param item = `Nc1scc(CN2CCN(C3CCCC3)CC2)c1C(=O)c1ccc(Cl)cc1` ; retrieve measured Activity.
2.1

Param item = `Nc1scc(CN2CCN(CCc3ccc(Cl)cc3)CC2)c1C(=O)c1ccc(Cl)cc1` ; retrieve measured Activity.
-3.1

Param item = `Nc1scc(CN2CCN(Cc3ccc(Cl)cc3)CC2)c1C(=O)c1ccc(Cl)cc1` ; retrieve measured Activity.
4.2

Param item = `Nc1scc(CN2CCN(c3ccccc3F)CC2)c1C(=O)c1ccc(Cl)cc1` ; retrieve measured Activity.
-1
